subject of test: G protein-coupled receptor 119 (GPR-119) (Mesocricetus auratus)
Construct: hamster-derived β-cells containing G protein-coupled receptor 119 (GPR-119), HIT-T15 cells; host or cells: HIT-T15 (hamster pancreatic β-cells)
Sequence (A0A1U8CD06 1-334): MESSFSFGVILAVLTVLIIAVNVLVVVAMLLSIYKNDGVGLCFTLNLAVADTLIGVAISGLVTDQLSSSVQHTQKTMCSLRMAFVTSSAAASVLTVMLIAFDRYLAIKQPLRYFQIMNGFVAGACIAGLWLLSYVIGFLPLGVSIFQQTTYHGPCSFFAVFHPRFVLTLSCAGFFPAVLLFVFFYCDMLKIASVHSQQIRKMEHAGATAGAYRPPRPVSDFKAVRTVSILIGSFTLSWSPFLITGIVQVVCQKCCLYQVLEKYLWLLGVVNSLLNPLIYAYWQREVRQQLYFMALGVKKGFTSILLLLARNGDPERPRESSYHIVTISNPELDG
assay protocol: Evaluation of cAMP activity in HIT-T15 cells (HTRF cAMP dynamic kit)
Assay type: cell-based, hamster
condition set: cAMP activation, 1 h at 37° C., six concentrations, read-out: EC50
In this section, each of the compounds is paired with its reported pEC50.
By convention, pEC50 is the negative base-10 log of a molar concentration.

Which pEC50 value is on record for CC(C)c1noc(N2CCC(COc3ccc(C4=CCC(C(=O)N5CCC5)CC4)cc3)CC2)n1 (stereo not drawn) [Example 65] ?
7.39

Entry under review: CC(C)(C)OC(=O)N1CCC(COc2ccc(C3=CCC(C(=O)N4CCCCC4)CC3)cc2)CC1 (stereo not drawn) [Example 204] . Reported pEC50?
8.05
